The compounds listed here are annotated with their growth.
test system: IGROV1 ovarian; test: NCI-60 one-dose screen, 48 h (100 = growth as untreated, 0 = no growth, -100 = all killed); details: 10 µM unless noted
Compounds without any hit were thinned out: in the full panel of roughly 83,000, 20% have a hit.
Please state the figure in %; there is no need to write the unit.

# COMPOUND, growth / %
data = [
    ("O=C1Nc2ccccc2/C1=C/c1cccn1CCCCn1c2ccccc2c(=O)c2ccccc21", 77.3),
    ("Cc1ccc(Nn2c(SCC(=O)Nc3nc(-c4ccccc4)cs3)nc(C)c2C)cc1", 86),
    ("Cc1cccc(CNc2c3ccccc3nc3ccccc23)c1", 19.5),
    ("COc1ccc(C(C)=O)cc1S(=O)(=O)Nc1c(N)nc(SC)[nH]c1=O", 102),
    ("O=C(CN1C(=O)NC2NC(=O)NC21)N/N=C/c1ccccc1[N+](=O)[O-] (stereo not given)", 107),
]

Item under review: CCCCNC(=O)CC1=C(C)/C(=C/c2[nH]c(-c3ccc[nH]3)cc2OC)N=C1C . Reported growth?
49.2

Now try N#CC1=C(N)Oc2c(ccc3ccccc23)C1c1ccccc1 (stereo not given) .
27.2

Another compound to check: CCN1C(=S)N(c2ccccc2)C2NC(=S)N(/N=C/C=C/c3ccccc3OC)C21 (stereo not given)
23.8

Try this compound too: O=C(CSc1nc2sc3c(c2c(=O)n1-c1ccccc1)CCCCC3)N/N=C/c1cccc([N+](=O)[O-])c1
71.1

Also check CC(C)(Sc1cc(C(C)(C)C)c(O)c(C(C)(C)C)c1)Sc1cc(C(C)(C)C)c(OC(=O)CCCC(=O)O)c(C(C)(C)C)c1
57.4
